# System: 1321N1 cells
# assay-overview: MTS assay, 1321N1 glioma cell line
# Assay type: cell-based
# measurement-setup: 48 h; average and standard deviation of four repeats; dash = IC50 value not reached
measured-property: IC50 (µM)

• N.N.[Cl][Pt][Cl] [cisplatin] = 11
